Recorded values, source the RNAGym collection of RNA variant scans (doi:10.7554/elife.90254).

B1: LINE1-full (parent)
chain: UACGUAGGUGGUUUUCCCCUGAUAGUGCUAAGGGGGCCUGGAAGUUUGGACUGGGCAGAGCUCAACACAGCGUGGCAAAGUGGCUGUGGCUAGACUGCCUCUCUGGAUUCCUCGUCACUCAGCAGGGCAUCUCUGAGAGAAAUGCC

Variants of: B1
assay-details: self-cleavage, relative activity (ratio to wild type); higher = more cleavage; in vitro, sequencing; the parent is a self-cleaving ribozyme
Known self-cleavage of a selection of variants
// keep it numeric: no unit symbol after the value

Solved entries (count: 3):
{"mutation-name": "G27A U91C", "self-cleavage": 0.35}
{"mutation-name": "U85A A92G", "self-cleavage": 0.13}
{"mutation-name": "G93U U112C", "self-cleavage": 0.03}

self-cleavage reading for U1C A140G : 0.99

Per the record, A94G C110U has self-cleavage of 0.32

Reported self-cleavage of U47A U132A : 1.34

What the record says about U62C G74A : self-cleavage is 0.04

The variant A78G U130G showed self-cleavage equal to 1.88

What the record says about A141U A142G : self-cleavage is 1.79

The value of self-cleavage measured for the variant A50G C63A turned out to be 0.02

// self-cleavage value for G25A U143A : 1.12

GET /value?item= U47C A141G &field=self-cleavage returns 1.51

// field: self-cleavage; key: A2G A6U ; value = 0.53

So, U45C A94C ? Its self-cleavage was 0.04

The reported self-cleavage of the variant C19U A107G was 1.41
